Target Desc: human orexin-1 receptor (Homo sapiens, UniProt O43613)
Construct: expressed in transfected cells; host or cells: CHO cells (grown under G418 selection)
Sequence (O43613 whole entry): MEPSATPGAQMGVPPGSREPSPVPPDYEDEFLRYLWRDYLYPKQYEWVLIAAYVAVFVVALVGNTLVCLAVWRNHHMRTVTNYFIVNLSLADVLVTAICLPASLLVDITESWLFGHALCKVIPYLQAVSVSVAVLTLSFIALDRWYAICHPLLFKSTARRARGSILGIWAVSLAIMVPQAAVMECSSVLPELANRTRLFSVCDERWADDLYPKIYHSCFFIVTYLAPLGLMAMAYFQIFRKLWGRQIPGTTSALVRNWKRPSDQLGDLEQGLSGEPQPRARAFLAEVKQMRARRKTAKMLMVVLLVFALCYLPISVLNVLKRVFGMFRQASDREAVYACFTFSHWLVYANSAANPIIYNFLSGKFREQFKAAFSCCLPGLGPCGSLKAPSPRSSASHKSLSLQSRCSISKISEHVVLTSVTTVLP
Assay Remarks: Intracellular calcium measurements (FLIPR), CHO cells expressing the human orexin-1 receptor, orexin-A as agonist
Assay type: cell-based
Applied Conditions: measured on FLIPR Tetra; 3 nM orexin-A; read-out: OX1 IC50
Property Measured: pIC50
In simple prose, pIC50 is minus the logarithm base ten of a concentration in moles per litre.

compound="O=C(NC[C@@H]1CCCCN1C(=O)c1nc(C2CC2)sc1-c1ccccc1)c1cnc2sccn12 [Example 96]" target_desc="human orexin-1 receptor (Homo sapiens, UniProt O43613)" obs_value=8.44

pIC50 for human orexin-1 receptor (Homo sapiens, UniProt O43613) with input Cc1cccc(-c2sc(C3CC3)nc2C(=O)N2CCCC[C@H]2CNC(=O)c2cccc3c2CCO3)c1 [Example 107] equals 7.74

pIC50 for human orexin-1 receptor (Homo sapiens, UniProt O43613) with input Cn1c(C(=O)NC[C@@H]2CCCCN2C(=O)c2nc(C3CC3)sc2-c2ccccc2)cc2occc21 [Example 131] equals 6.91

pIC50 for human orexin-1 receptor (Homo sapiens, UniProt O43613) with input Cn1nc(C(=O)NC[C@@H]2CCCCN2C(=O)c2nc(C3CC3)sc2-c2ccccc2)c2ccccc21 [Example 100] equals 7.85

pIC50 for human orexin-1 receptor (Homo sapiens, UniProt O43613) with input Cc1cccc(-c2sc(C3CC3)nc2C(=O)N2CCCC[C@H]2CNC(=O)c2cccc(F)c2C)c1 [Example 114] equals 7.82
